Measured ΔKd (fold) of individual entries
# target.or.system: T1, Recombinant human EGFR-Fc (aa 1-645 of the extracellular domain of human EGFR fused to human Fc) (human, UniProt P00533 25-645)
# T1 construct: range 1-645; bought from R&D Systems; also called EGFR645-Fc; EGFR-Fc (HER-1); not shown: human Fc
# assay.summary: SPR Biacore, EGFR645-Fc; against I1-GS10-E5 Pegylated
outcome.measure: ΔKd (fold)

>  <binder>
I1-GS10-E5(S62C) pegylated (designed binder, PEG on Cys at position 62 of E5 (position of SEQ ID NO: 1), also called I1-GS10-E5(S62C)(6)) MGVSDVPRDLEVVAATPTSLLISWSARLKVARYYRITYGETGGNSPVQEFTVPKNVYTATISGLKPGVDYTITVYAVTRFRDYQPISINYRTEIEKGSGSGSGSGSGSGSGSGSGSVSDVPRDLEVVAATPTSLLISWWAPVDRYQYYRITYGETGGNSPVQEFTVPRDVYTATICGLKPGVDYTITVYAVTDYKPHADGPHTYHESPISINYRTEHHHHHH

>  <test.result>
1.6 fold

$$$$
>  <binder>
I1-GSGCGS8-E5 pegylated (designed binder, PEG on the Cys of the GSGCGS8 linker, alternative clone of I1-GS10-E5 pegylated; tail of first monomer EIEK (D to E); also called I1-GSGCGS8-E5(3)) MGVSDVPRDLEVVAATPTSLLISWSARLKVARYYRITYGETGGNSPVQEFTVPKNVYTATISGLKPGVDYTITVYAVTRFRDYQPISINYRTEIEKGSGCGSGSGSGSGSGSGSGSVSDVPRDLEVVAATPTSLLISWWAPVDRYQYYRITYGETGGNSPVQEFTVPRDVYTATISGLKPGVDYTITVYAVTDYKPHADGPHTYHESPISINYRTEHHHHHH

>  <test.result>
0.7 fold

$$$$
>  <binder>
I1-GS10-E5(S91C) pegylated (designed binder, PEG on Cys at position 91 of E5 (position of SEQ ID NO: 1), also called I1-GS10-E5(S91C)(8)) MGVSDVPRDLEVVAATPTSLLISWSARLKVARYYRITYGETGGNSPVQEFTVPKNVYTATISGLKPGVDYTITVYAVTRFRDYQPISINYRTEIEKGSGSGSGSGSGSGSGSGSGSVSDVPRDLEVVAATPTSLLISWWAPVDRYQYYRITYGETGGNSPVQEFTVPRDVYTATISGLKPGVDYTITVYAVTDYKPHADGPHTYHESPICINYRTEHHHHHH

>  <test.result>
0.2 fold

$$$$
